FYI, the data here is from paper PMC2965769.

Provide the reported pIC50 of each item.
test system: NiV G/F pseudotyped viruses; conditions: 24 h
pIC50: −log10 of the molar value. *: point of attachment. X2 = CC(C)CCC[C@@H](C)[C@H]1CC[C@H]2[C@@H]3CC=C4C[C@@H](OC(=O)CCOCCOCCOCCOCCNC(=O)C*)CC[C@]4(C)[C@H]3CC[C@]12C; X1 = CC(C)CCC[C@@H](C)[C@H]1CC[C@H]2[C@@H]3CC=C4C[C@@H](OC(=O)C*)CC[C@]4(C)[C@H]3CC[C@]12C

{"columns": ["substance", "target entity", "result"],
 "data": [
  ["Ac-VALDPIDISIVLNKAKSDLEESKEWIRRSNQKLDSIGSGSGC(X2)-NH2 (N-terminus and C-terminus assumed) [V-PEG4-chol]", "NiV G/F pseudotyped viruses", "~10.70"]
]}

Please turn your attention to the following entry.
Per the reported NiV G/F pseudotyped viruses data, Ac-VALDPIDISIVLNKAKSDLEESKEWIRRSNQKLDSIGSGSGC(X1)-NH2 (N-terminus and C-terminus assumed) [V-chol] has pIC50 of ~10.70
